Attribution: ChEMBL document CHEMBL1275348

# Tested on: L1210
# measurement description: Antitumor activity against mouse L1210 cells xenografted in DBA/2J mouse at 100 ug/kg, ip administered 3 times on day 1, 5 and 9 postimplantation relative to control
# condition set: route intraperitoneal
Reported T/C values for the following compounds.

| molecular string | T/C |
| --- | --- |
| CC(C)(C)OC(=O)NOc1cc2c(c3ccccc13)[C@H](CCl)CN2C(=O)c1cc2cc(NC(=O)c3cc4ccccc4[nH]3)ccc2[nH]1 | 389% |
| NC(=O)NOc1cc2c(c3ccccc13)[C@H](CCl)CN2C(=O)c1cc2cc(NC(=O)c3cc4ccccc4[nH]3)ccc2[nH]1 | 152% |
| COC(=O)NOc1cc2c(c3ccccc13)[C@H](CCl)CN2C(=O)c1cc2cc(NC(=O)c3cc4ccccc4[nH]3)ccc2[nH]1 | 122% |
| O=C(Nc1ccc2[nH]c(C(=O)N3C[C@@H](CCl)c4c3cc(O)c3ccccc43)cc2c1)c1cc2ccccc2[nH]1 | 333% |

###

# System: L1210
# measurement description: Cytotoxicity against mouse L1210 cells
# Type: functional, cell-based
Reported IC50 values for the following molecules.
measured quantity: IC50 (nM)

| molecule | output unit | recorded result |
| --- | --- | --- |
| CN(Oc1cc2c(c3ccccc13)[C@@H](CCl)CN2C(=O)c1cc2cc(NC(=O)c3cc4ccccc4[nH]3)ccc2[nH]1)C(=O)OC(C)(C)C | nM | 30 |
| COC(=O)NOc1cc2c(c3ccccc13)[C@@H](CCl)CN2C(=O)c1cc2cc(NC(=O)c3cc4ccccc4[nH]3)ccc2[nH]1 | nM | 9 |
| CC(C)(C)OC(=O)NOc1cc2c(c3ccccc13)[C@H](CCl)CN2C(=O)c1cc2cc(NC(=O)c3cc4ccccc4[nH]3)ccc2[nH]1 | nM | 0.1 |
| CC(C)(C)C(=O)NOc1cc2c(c3ccccc13)[C@@H](CCl)CN2C(=O)c1cc2cc(NC(=O)c3cc4ccccc4[nH]3)ccc2[nH]1 | nM | 3.5 |
| COc1c(O)c2c(c3cc(C(=O)N4CCc5c4c(O)c(OC)c4[nH]c(C(=O)N6C[C@H]7C[C@@]78C6=CC(=O)c6[nH]cc(C)c68)cc54)[nH]c13)CCN2C(N)=O [(+)-CC-1065] | nM | 0.02 |
| O=C(Nc1ccc2[nH]c(C(=O)N3C[C@@H](CCl)c4c3cc(O)c3ccccc43)cc2c1)c1cc2ccccc2[nH]1 | nM | 0.03 |

###

Reported IC50 values for the following compounds.
# Test system: L1210
# measurement description: Cytotoxicity against mouse L1210 cells
# Assay type: functional, cell-based
measured quantity: IC50 (nM)

| molecular string | measured quantity | recorded result |
| --- | --- | --- |
| COC(=O)NOc1cc2c(c3ccccc13)[C@H](CCl)CN2C(=O)c1cc2cc(NC(=O)c3cc4ccccc4[nH]3)ccc2[nH]1 | IC50 | 0.5 |
| CC(C)(C)C(=O)NOc1cc2c(c3ccccc13)[C@H](CCl)CN2C(=O)c1cc2cc(NC(=O)c3cc4ccccc4[nH]3)ccc2[nH]1 | IC50 | 0.08 |
| O=C(Nc1ccc2[nH]c(C(=O)N3C[C@H](CCl)c4c3cc(O)c3ccccc43)cc2c1)c1cc2ccccc2[nH]1 | IC50 | 0.9 |
| NC(=O)NOc1cc2c(c3ccccc13)[C@@H](CCl)CN2C(=O)c1cc2cc(NC(=O)c3cc4ccccc4[nH]3)ccc2[nH]1 | IC50 | 30 |
| NC(=O)NOc1cc2c(c3ccccc13)[C@H](CCl)CN2C(=O)c1cc2cc(NC(=O)c3cc4ccccc4[nH]3)ccc2[nH]1 | IC50 | 1.1 |
| CC(C)(C)OC(=O)NOc1cc2c(c3ccccc13)[C@@H](CCl)CN2C(=O)c1cc2cc(NC(=O)c3cc4ccccc4[nH]3)ccc2[nH]1 | IC50 | 4 |
| CN(Oc1cc2c(c3ccccc13)[C@H](CCl)CN2C(=O)c1cc2cc(NC(=O)c3cc4ccccc4[nH]3)ccc2[nH]1)C(=O)OC(C)(C)C | IC50 | 0.9 |
